List of pIC50 tested on human 20S proteasome, trypsin-like (T-L) activity (Homo sapiens, UniProt Q99436).
pIC50: −log10 of the molar value. Peptide text beside a SMILES is read from it.
property: pIC50

compound | property | operator | recorded result
CC[C@H](C)[C@@H]1NC(=O)[C@@H]2CCCN2C(=O)[C@H](CCCCN)NC(=O)[C@H](CC(C)C)NC(=O)[C@H](CO)NC(=O)[C@H](CCCCN)NC(=O)[C@H]([C@@H](C)O)NC(=O)[C@@H](NC(=O)[C@H](CCCNC(=N)N)NC(=O)CN)CSSC[C@@H](C(=O)N[C@@H](Cc2ccccc2)C(=O)N2CCC[C@H]2C(=O)N[C@@H](CC(=O)O)C(=O)O)NC1=O [Analogue II] (HELM PEPTIDE1{G.R.C.T.K.S.L.K.P.I.C.F.P.D}$PEPTIDE1,PEPTIDE1,3:R3-11:R3$$$V2.0) | pIC50 | < | 4.00
CC[C@H](C)[C@@H]1NC(=O)[C@@H]2CCCN2C(=O)[C@H](CCCCN)NC(=O)[C@H](CCCCN)NC(=O)[C@H](CO)NC(=O)[C@H](C)NC(=O)[C@H]([C@@H](C)O)NC(=O)[C@@H](NC(=O)[C@H](CCCNC(=N)N)NC(=O)CN)CSSC[C@@H](C(=O)N[C@@H](Cc2ccccc2)C(=O)N2CCC[C@H]2C(=O)N[C@@H](CC(=O)O)C(=O)O)NC1=O [Analogue VIII] (HELM PEPTIDE1{G.R.C.T.A.S.K.K.P.I.C.F.P.D}$PEPTIDE1,PEPTIDE1,3:R3-11:R3$$$V2.0) | pIC50 | < | 4.00
CC[C@H](C)[C@@H]1NC(=O)[C@@H]2CCCN2C(=O)[C@H](CCCCN)NC(=O)[C@H](CCCCN)NC(=O)[C@H](CO)NC(=O)[C@H](CCCNC(=N)N)NC(=O)[C@H]([C@@H](C)O)NC(=O)[C@@H](NC(=O)[C@H](CCCNC(=N)N)NC(=O)CN)CSSC[C@@H](C(=O)N[C@@H](Cc2ccccc2)C(=O)N2CCC[C@H]2C(=O)N[C@@H](CC(=O)O)C(=O)O)NC1=O [Analogue V] (HELM PEPTIDE1{G.R.C.T.R.S.K.K.P.I.C.F.P.D}$PEPTIDE1,PEPTIDE1,3:R3-11:R3$$$V2.0) | pIC50 | = | 4.14
CC[C@H](C)[C@@H]1NC(=O)[C@@H]2CCCN2C(=O)[C@H](CCCCN)NC(=O)[C@H](CCCCN)NC(=O)[C@H](CO)NC(=O)[C@H](Cc2ccccc2)NC(=O)[C@H]([C@@H](C)O)NC(=O)[C@@H](NC(=O)[C@H](CCCNC(=N)N)NC(=O)CN)CSSC[C@@H](C(=O)N[C@@H](Cc2ccccc2)C(=O)N2CCC[C@H]2C(=O)N[C@@H](CC(=O)O)C(=O)O)NC1=O [Analogue VII] (HELM PEPTIDE1{G.R.C.T.F.S.K.K.P.I.C.F.P.D}$PEPTIDE1,PEPTIDE1,3:R3-11:R3$$$V2.0) | pIC50 | = | 4.34

----------
target or test system: human 20S proteasome, trypsin-like (T-L) activity (Homo sapiens, UniProt Q99436)
pIC50: −log10 of the molar value. Peptide text beside a SMILES is read from it. * marks the point of attachment. Cbz = O=C(OCc1ccccc1)*

compound | pIC50
CC[C@H](C)[C@@H]1NC(=O)[C@@H]2CCCN2C(=O)[C@H](CCCCN)NC(=O)[C@H](CCCCN)NC(=O)[C@H](CO)NC(=O)[C@H](CCCCN)NC(=O)[C@H]([C@@H](C)O)NC(=O)[C@@H](NC(=O)[C@H](CCCNC(=N)N)NC(=O)CN)CSSC[C@@H](C(=O)N[C@@H](Cc2ccccc2)C(=O)N2CCC[C@H]2C(=O)N[C@@H](CC(=O)O)C(=O)O)NC1=O [Analogue X] (HELM PEPTIDE1{G.R.C.T.K.S.K.K.P.I.C.F.P.D}$PEPTIDE1,PEPTIDE1,3:R3-11:R3$$$V2.0) | 4.06
CC(C)C[C@@H](C=O)NC(=O)[C@H](CC(C)C)NC(=O)[C@H](CC(C)C)NC(=O)OCc1ccccc1 [Z-LLL-CHO, reference compound] (Cbz-Leu-Leu-Leu-aldehyde) | 4.32

----------
pIC50: −log10 of the molar value. Peptide text beside a SMILES is read from it.
List of pIC50 tested on human 20S proteasome, trypsin-like (T-L) activity (Homo sapiens, UniProt Q99436).

compound | operator | pIC50
CC[C@H](C)[C@@H]1NC(=O)[C@@H]2CCCN2C(=O)[C@H](C)NC(=O)[C@H](C)NC(=O)[C@H](CO)NC(=O)[C@H](CCCCN)NC(=O)[C@H]([C@@H](C)O)NC(=O)[C@@H](NC(=O)[C@H](CCCNC(=N)N)NC(=O)CN)CSSC[C@@H](C(=O)N[C@@H](Cc2ccccc2)C(=O)N2CCC[C@H]2C(=O)N[C@@H](CC(=O)O)C(=O)O)NC1=O [Analogue IX] (HELM PEPTIDE1{G.R.C.T.K.S.A.A.P.I.C.F.P.D}$PEPTIDE1,PEPTIDE1,3:R3-11:R3$$$V2.0) | = | 4.21
CC[C@H](C)[C@@H]1NC(=O)[C@@H]2CCCN2C(=O)[C@H]([C@@H](C)CC)NC(=O)[C@H](CCCNC(=N)N)NC(=O)[C@H](CO)NC(=O)[C@H](CCCCN)NC(=O)[C@H]([C@@H](C)O)NC(=O)[C@@H](NC(=O)[C@H](CCCNC(=N)N)NC(=O)CN)CSSC[C@@H](C(=O)N[C@@H](Cc2ccccc2)C(=O)N2CCC[C@H]2C(=O)N[C@@H](CC(=O)O)C(=O)O)NC1=O [Analogue IV] (HELM PEPTIDE1{G.R.C.T.K.S.R.I.P.I.C.F.P.D}$PEPTIDE1,PEPTIDE1,3:R3-11:R3$$$V2.0) | = | 4.22
CC[C@H](C)[C@@H]1NC(=O)[C@@H]2CCCN2C(=O)[C@@H]2CCCN2C(=O)[C@H]([C@@H](C)CC)NC(=O)[C@H](CO)NC(=O)[C@H](CCCCN)NC(=O)[C@H]([C@@H](C)O)NC(=O)[C@@H](NC(=O)[C@H](CCCNC(=N)N)NC(=O)CN)CSSC[C@@H](C(=O)N[C@@H](Cc2ccccc2)C(=O)N2CCC[C@H]2C(=O)N[C@@H](CC(=O)O)C(=O)O)NC1=O | < | 4.00

----------
target or test system: human 20S proteasome, chymotrypsin-like (ChT-L) activity (Homo sapiens)
Peptide text beside a SMILES is read from it.
Please note: Ki exactly at 3000 nM is 0.0. Only values below 3000 nM get 1.0.

compound | target or test system | group
CC[C@H](C)[C@@H]1NC(=O)[C@@H]2CCCN2C(=O)[C@@H]2CCCN2C(=O)[C@H]([C@@H](C)CC)NC(=O)[C@H](CO)NC(=O)[C@H](CCCCN)NC(=O)[C@H]([C@@H](C)O)NC(=O)[C@@H](NC(=O)[C@H](CCCNC(=N)N)NC(=O)CN)CSSC[C@@H](C(=O)N[C@@H](Cc2ccccc2)C(=O)N2CCC[C@H]2C(=O)N[C@@H](CC(=O)O)C(=O)O)NC1=O [Analogue I] | human 20S proteasome, chymotrypsin-like (ChT-L) activity (Homo sapiens) | 0.0
CC[C@H](C)[C@@H]1NC(=O)[C@@H]2CCCN2C(=O)[C@H](CCCCN)NC(=O)[C@H](CCCCN)NC(=O)[C@H](CO)NC(=O)[C@H](Cc2ccc(O)cc2)NC(=O)[C@H]([C@@H](C)O)NC(=O)[C@@H](NC(=O)[C@H](CCCNC(=N)N)NC(=O)CN)CSSC[C@@H](C(=O)N[C@@H](Cc2ccccc2)C(=O)N2CCC[C@H]2C(=O)N[C@@H](CC(=O)O)C(=O)O)NC1=O [Analogue VI] (HELM PEPTIDE1{G.R.C.T.Y.S.K.K.P.I.C.F.P.D}$PEPTIDE1,PEPTIDE1,3:R3-11:R3$$$V2.0) | human 20S proteasome, chymotrypsin-like (ChT-L) activity (Homo sapiens) | 1.0
CC[C@H](C)[C@@H]1NC(=O)[C@@H]2CCCN2C(=O)[C@H](CCCCN)NC(=O)[C@H](CCCCN)NC(=O)[C@H](CO)NC(=O)[C@H](Cc2ccccc2)NC(=O)[C@H]([C@@H](C)O)NC(=O)[C@@H](NC(=O)[C@H](CCCNC(=N)N)NC(=O)CN)CSSC[C@@H](C(=O)N[C@@H](Cc2ccccc2)C(=O)N2CCC[C@H]2C(=O)N[C@@H](CC(=O)O)C(=O)O)NC1=O [Analogue VII] (HELM PEPTIDE1{G.R.C.T.F.S.K.K.P.I.C.F.P.D}$PEPTIDE1,PEPTIDE1,3:R3-11:R3$$$V2.0) | human 20S proteasome, chymotrypsin-like (ChT-L) activity (Homo sapiens) | 1.0
CC[C@H](C)[C@@H]1NC(=O)[C@@H]2CCCN2C(=O)[C@H](CCCCN)NC(=O)[C@H](CC(C)C)NC(=O)[C@H](CO)NC(=O)[C@H](CCCCN)NC(=O)[C@H]([C@@H](C)O)NC(=O)[C@@H](NC(=O)[C@H](CCCNC(=N)N)NC(=O)CN)CSSC[C@@H](C(=O)N[C@@H](Cc2ccccc2)C(=O)N2CCC[C@H]2C(=O)N[C@@H](CC(=O)O)C(=O)O)NC1=O [Analogue II] (HELM PEPTIDE1{G.R.C.T.K.S.L.K.P.I.C.F.P.D}$PEPTIDE1,PEPTIDE1,3:R3-11:R3$$$V2.0) | human 20S proteasome, chymotrypsin-like (ChT-L) activity (Homo sapiens) | 1.0
CC[C@H](C)[C@@H]1NC(=O)[C@@H]2CCCN2C(=O)[C@H](CCCCN)NC(=O)[C@H](CCCCN)NC(=O)[C@H](CO)NC(=O)[C@H](CCCNC(=N)N)NC(=O)[C@H]([C@@H](C)O)NC(=O)[C@@H](NC(=O)[C@H](CCCNC(=N)N)NC(=O)CN)CSSC[C@@H](C(=O)N[C@@H](Cc2ccccc2)C(=O)N2CCC[C@H]2C(=O)N[C@@H](CC(=O)O)C(=O)O)NC1=O [Analogue V] (HELM PEPTIDE1{G.R.C.T.R.S.K.K.P.I.C.F.P.D}$PEPTIDE1,PEPTIDE1,3:R3-11:R3$$$V2.0) | human 20S proteasome, chymotrypsin-like (ChT-L) activity (Homo sapiens) | 1.0

Values from paper PMC3934894
